test system: OVCAR-5; test: In vitro cytotoxicity against human ovarian cancer OVCAR-5 cell line; format: functional
Item-by-item account of GI50
The figure you give is taken to be in nM; do not add the unit.

Some compounds with recorded GI50:
>>> quantitative_result("C[C@@H]1O[C@H]2O[C@H]3[C@@H](OC[C@H](O)[C@@H]3O)OC(=O)[C@@]34CCC5C(=CC[C@@H]6[C@@]7(C)C[C@H](O)[C@H](O[C@@H]8O[C@H](CO)[C@@H](O)[C@H](O)[C@H]8O[C@H]8OC[C@H](OC(=O)CC(C)(O)CC(=O)O[C@@H]1[C@@H](O[C@@H]1O[C@H](CO)[C@@H](O)[C@H](O)[C@H]1O)[C@H]2O)C(O)[C@H]8O)C(C)(C)[C@@H]7CC[C@@]56C)[C@@H]3CC(C)(C)CC4 (some centres undefined)")
8910
>>> quantitative_result("C[C@@H]1O[C@H]2O[C@H]3[C@@H](OC[C@H](O)[C@@H]3O)OC(=O)[C@@]34CC[C@@H]5C(=CC[C@H]6[C@@]5(C)CC[C@H]5C(C)(C)[C@@H](O[C@@H]7O[C@H](CO)[C@@H](O)[C@H](O)[C@H]7O[C@H]7OC[C@H](OC(=O)CC(C)(O)CC(=O)O[C@@H]1[C@@H](O)[C@H]2O)[C@H](O)[C@H]7O)[C@@H](O)C[C@]65C)[C@@H]3CC(C)(C)CC4 (some centres undefined)")
1320
>>> quantitative_result("C[C@@H]1O[C@H]2O[C@H]3[C@@H](OC[C@H](O)[C@@H]3O)OC(=O)[C@@]34CCC5C(=CC[C@@H]6[C@@]7(C)C[C@H](O)[C@H](O[C@@H]8O[C@H](CO)[C@@H](O)[C@H](O)[C@H]8O[C@@H]8O[C@H](CO)[C@H](O)[C@H](O)[C@H]8OC(=O)CC(C)(O)CC(=O)O[C@@H]1[C@@H](O[C@@H]1O[C@H](CO)[C@@H](O)[C@H](O)[C@H]1O)[C@H]2O)C(C)(C)[C@@H]7CC[C@@]56C)[C@@H]3CC(C)(C)CC4 (some centres undefined)")
2000

Now, please, on to the next compound.
Data request, read-out GI50, for C[C@@H]1O[C@H]2OC3[C@@H](OC[C@H](O)[C@@H]3O)OC(=O)[C@@]34CC[C@@H]5C(=CC[C@H]6[C@@]5(C)CC[C@H]5C(C)(C)[C@@H](O[C@@H]7O[C@H](CO)[C@@H](O)[C@H](O)[C@H]7O[C@@H]7O[C@H](CO)[C@@H](O)[C@H](O)[C@H]7OC(=O)CC(C)(O)CC(=O)O[C@@H]1[C@@H](O)[C@H]2O)[C@@H](O)C[C@]65C)[C@@H]3CC(C)(C)CC4 (some centres undefined) 1620

---

Item-by-item account of GI50
system: HL-60; assay: In vitro cytotoxicity against human leukemia HL-60(TB) cancer cell line; type: functional
The figure you give is taken to be in nM; do not add the unit.

Some compounds with recorded GI50:
>>> quantitative_result("C[C@@H]1O[C@H]2O[C@H]3[C@@H](OC[C@H](O)[C@@H]3O)OC(=O)[C@@]34CCC5C(=CC[C@@H]6[C@@]7(C)C[C@H](O)[C@H](O[C@@H]8O[C@H](CO)[C@@H](O)[C@H](O)[C@H]8O[C@@H]8O[C@H](CO)[C@H](O)[C@H](O)[C@H]8OC(=O)CC(C)(O)CC(=O)O[C@@H]1[C@@H](O[C@@H]1O[C@H](CO)[C@@H](O)[C@H](O)[C@H]1O)[C@H]2O)C(C)(C)[C@@H]7CC[C@@]56C)[C@@H]3CC(C)(C)CC4 (some centres undefined)")
1450
>>> quantitative_result("C[C@@H]1O[C@H]2O[C@H]3[C@@H](OC[C@H](O)[C@@H]3O)OC(=O)[C@@]34CC[C@@H]5C(=CC[C@H]6[C@@]5(C)CC[C@H]5C(C)(C)[C@@H](O[C@@H]7O[C@H](CO)[C@@H](O)[C@H](O)[C@H]7O[C@H]7OC[C@H](OC(=O)CC(C)(O)CC(=O)O[C@@H]1[C@@H](O)[C@H]2O)[C@H](O)[C@H]7O)[C@@H](O)C[C@]65C)[C@@H]3CC(C)(C)CC4 (some centres undefined)")
1780
>>> quantitative_result("C[C@@H]1O[C@H]2O[C@H]3[C@@H](OC[C@H](O)[C@@H]3O)OC(=O)[C@@]34CCC5C(=CC[C@@H]6[C@@]7(C)C[C@H](O)[C@H](O[C@@H]8O[C@H](CO)[C@@H](O)[C@H](O)[C@H]8O[C@H]8OC[C@H](OC(=O)CC(C)(O)CC(=O)O[C@@H]1[C@@H](O[C@@H]1O[C@H](CO)[C@@H](O)[C@H](O)[C@H]1O)[C@H]2O)C(O)[C@H]8O)C(C)(C)[C@@H]7CC[C@@]56C)[C@@H]3CC(C)(C)CC4 (some centres undefined)")
1820

Now, please, on to the next compound.
Data request, read-out GI50, for C[C@@H]1O[C@H]2OC3[C@@H](OC[C@H](O)[C@@H]3O)OC(=O)[C@@]34CC[C@@H]5C(=CC[C@H]6[C@@]5(C)CC[C@H]5C(C)(C)[C@@H](O[C@@H]7O[C@H](CO)[C@@H](O)[C@H](O)[C@H]7O[C@@H]7O[C@H](CO)[C@@H](O)[C@H](O)[C@H]7OC(=O)CC(C)(O)CC(=O)O[C@@H]1[C@@H](O)[C@H]2O)[C@@H](O)C[C@]65C)[C@@H]3CC(C)(C)CC4 (some centres undefined) 1410
